Data provenance is ChEMBL document CHEMBL1212913.

Let's look at some compounds and their measured IC50.
# EXPERIMENTAL_TARGET: Glutamate NMDA receptor; Grin1/Grin2b (Rattus norvegicus, UniProt P35439+Q00960)
# Sequence (Q00960 whole entry, other chains not shown): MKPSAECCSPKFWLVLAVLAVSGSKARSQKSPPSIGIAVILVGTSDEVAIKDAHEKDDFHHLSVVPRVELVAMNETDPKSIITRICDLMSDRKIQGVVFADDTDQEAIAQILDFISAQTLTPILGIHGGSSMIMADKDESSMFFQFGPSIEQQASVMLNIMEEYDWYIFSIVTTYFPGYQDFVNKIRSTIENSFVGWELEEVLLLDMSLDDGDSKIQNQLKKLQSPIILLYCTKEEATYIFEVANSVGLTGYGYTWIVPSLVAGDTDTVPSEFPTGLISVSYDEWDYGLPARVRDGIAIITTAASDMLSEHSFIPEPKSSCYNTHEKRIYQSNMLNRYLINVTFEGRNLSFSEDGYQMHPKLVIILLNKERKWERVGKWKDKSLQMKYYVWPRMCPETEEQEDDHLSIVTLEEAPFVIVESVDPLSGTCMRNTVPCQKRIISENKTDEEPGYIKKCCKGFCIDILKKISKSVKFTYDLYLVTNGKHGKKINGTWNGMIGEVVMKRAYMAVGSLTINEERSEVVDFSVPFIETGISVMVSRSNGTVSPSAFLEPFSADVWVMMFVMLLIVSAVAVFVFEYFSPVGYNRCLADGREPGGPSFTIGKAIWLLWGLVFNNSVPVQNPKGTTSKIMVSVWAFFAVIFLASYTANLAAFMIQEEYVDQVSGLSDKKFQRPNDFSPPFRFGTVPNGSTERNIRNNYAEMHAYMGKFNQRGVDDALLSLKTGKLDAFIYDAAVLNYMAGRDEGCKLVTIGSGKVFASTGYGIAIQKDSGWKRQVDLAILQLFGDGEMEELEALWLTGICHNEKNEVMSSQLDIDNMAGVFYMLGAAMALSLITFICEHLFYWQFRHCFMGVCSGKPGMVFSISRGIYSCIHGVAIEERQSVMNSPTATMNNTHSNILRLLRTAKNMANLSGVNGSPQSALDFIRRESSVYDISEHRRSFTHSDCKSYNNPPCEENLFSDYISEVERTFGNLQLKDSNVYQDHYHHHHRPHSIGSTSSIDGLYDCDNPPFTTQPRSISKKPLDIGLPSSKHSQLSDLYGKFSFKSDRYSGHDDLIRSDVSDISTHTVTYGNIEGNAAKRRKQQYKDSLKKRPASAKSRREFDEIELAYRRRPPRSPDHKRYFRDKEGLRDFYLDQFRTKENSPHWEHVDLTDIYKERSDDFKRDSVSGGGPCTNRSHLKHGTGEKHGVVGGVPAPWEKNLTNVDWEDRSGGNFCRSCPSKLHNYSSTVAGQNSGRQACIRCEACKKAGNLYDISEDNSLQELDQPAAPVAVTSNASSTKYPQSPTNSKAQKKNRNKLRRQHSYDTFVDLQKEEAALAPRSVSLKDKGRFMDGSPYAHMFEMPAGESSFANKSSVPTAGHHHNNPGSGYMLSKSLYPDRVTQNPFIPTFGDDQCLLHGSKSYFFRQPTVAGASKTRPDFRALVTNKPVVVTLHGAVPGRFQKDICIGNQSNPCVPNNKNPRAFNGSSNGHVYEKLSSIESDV
# PROTOCOL_SUMMARY: Antagonist activity at rat recombinant NR1-NR2B receptor expressed in Xenopus oocytes at holding potential of -40mV by two-electrode voltage-clamp electrophysiology
# Type: functional, cell-based, Oocyte
# EXPERIMENTAL_CONDITIONS: read-out: IC50
Numeric only. Scale: µM

Give the observed IC50 of `CCCc1ccc2nc(/C=C/c3cccc([N+](=O)[O-])c3)n(-c3ccc(C(=O)O)cc3)c(=O)c2c1` for Glutamate NMDA receptor; Grin1/Grin2b (Rattus norvegicus, UniProt P35439+Q00960).
18

Provide measured IC50 on Glutamate NMDA receptor; Grin1/Grin2b (Rattus norvegicus, UniProt P35439+Q00960) for `COc1ccc2nc(/C=C/c3cccc([N+](=O)[O-])c3)n(-c3ccc(C(N)=O)cc3)c(=O)c2c1` please.
82

// fetch IC50; item: `O=C(O)c1ccc(-n2c(/C=C/c3cccc([N+](=O)[O-])c3)nc3cc4c(cc3c2=O)OCO4)cc1` ; system: Glutamate NMDA receptor; Grin1/Grin2b (Rattus norvegicus, UniProt P35439+Q00960)
162

# evaluate next
Write down the reported IC50 (system: Glutamate NMDA receptor; Grin1/Grin2b (Rattus norvegicus, UniProt P35439+Q00960)) of `COC(=O)c1ccc(-n2c(/C=C/c3cccc([N+](=O)[O-])c3)nc3ccc(OC)cc3c2=O)cc1`
46

---

# EXPERIMENTAL_TARGET: Ionotropic glutamate receptor NMDA 1/2D (Rattus norvegicus, UniProt P35439+Q62645)
# PROTOCOL_SUMMARY: Antagonist activity at rat recombinant NR1-NR2D receptor expressed in Xenopus oocytes at holding potential of -40mV by two-electrode voltage-clamp electrophysiology
PARAMETER: IC50 (µM)
Field format: number, assumed µM, no unit text.

Identify measured IC50 corresponding to `O=C(O)c1cccc(-n2c(/C=C/c3cccnc3)nc3ccc(I)cc3c2=O)c1`
4

Note IC50 for the compound shown: `O=C(O)c1ccc(-n2c(/C=C/c3cccc([N+](=O)[O-])c3)nc3cc4c(cc3c2=O)OCO4)cc1`
36

Hello, please tell me recorded IC50 for this one: `O=C(O)c1ccc(-n2c(/C=C/c3cccc([N+](=O)[O-])c3)nc3ccc(O)cc3c2=O)cc1`
10

Note IC50 for the compound shown: `COc1ccc2cc(/C=C/c3nc4ccccc4c(=O)n3-c3ccc(C(=O)O)cc3)ccc2c1`
11

Please give the documented IC50 of `O=C(O)c1ccc(-n2c(/C=C/c3cccc(O)c3)nc3ccccc3c2=O)cc1`
17

Look up IC50 of `O=C(O)c1ccc(-n2c(/C=C/c3cccc([N+](=O)[O-])c3)nc3c(Cl)cc(Cl)cc3c2=O)cc1` and report it.
10

Assign IC50 to the following record: `O=C(O)c1ccc(-n2c(/C=C/c3ccc(O)cc3)nc3ccccc3c2=O)cc1`
36

New cases:
Please supply the value of reported IC50 for the item `O=C(O)c1ccc(-n2c(/C=C/c3ccc(C(F)(F)F)cc3)nc3ccccc3c2=O)cc1`
15

---

# EXPERIMENTAL_TARGET: Glutamate NMDA receptor; Grin1/Grin2a (Rattus norvegicus, UniProt P35439+Q00959)
# Sequence (Q00959 whole entry, other chains not shown): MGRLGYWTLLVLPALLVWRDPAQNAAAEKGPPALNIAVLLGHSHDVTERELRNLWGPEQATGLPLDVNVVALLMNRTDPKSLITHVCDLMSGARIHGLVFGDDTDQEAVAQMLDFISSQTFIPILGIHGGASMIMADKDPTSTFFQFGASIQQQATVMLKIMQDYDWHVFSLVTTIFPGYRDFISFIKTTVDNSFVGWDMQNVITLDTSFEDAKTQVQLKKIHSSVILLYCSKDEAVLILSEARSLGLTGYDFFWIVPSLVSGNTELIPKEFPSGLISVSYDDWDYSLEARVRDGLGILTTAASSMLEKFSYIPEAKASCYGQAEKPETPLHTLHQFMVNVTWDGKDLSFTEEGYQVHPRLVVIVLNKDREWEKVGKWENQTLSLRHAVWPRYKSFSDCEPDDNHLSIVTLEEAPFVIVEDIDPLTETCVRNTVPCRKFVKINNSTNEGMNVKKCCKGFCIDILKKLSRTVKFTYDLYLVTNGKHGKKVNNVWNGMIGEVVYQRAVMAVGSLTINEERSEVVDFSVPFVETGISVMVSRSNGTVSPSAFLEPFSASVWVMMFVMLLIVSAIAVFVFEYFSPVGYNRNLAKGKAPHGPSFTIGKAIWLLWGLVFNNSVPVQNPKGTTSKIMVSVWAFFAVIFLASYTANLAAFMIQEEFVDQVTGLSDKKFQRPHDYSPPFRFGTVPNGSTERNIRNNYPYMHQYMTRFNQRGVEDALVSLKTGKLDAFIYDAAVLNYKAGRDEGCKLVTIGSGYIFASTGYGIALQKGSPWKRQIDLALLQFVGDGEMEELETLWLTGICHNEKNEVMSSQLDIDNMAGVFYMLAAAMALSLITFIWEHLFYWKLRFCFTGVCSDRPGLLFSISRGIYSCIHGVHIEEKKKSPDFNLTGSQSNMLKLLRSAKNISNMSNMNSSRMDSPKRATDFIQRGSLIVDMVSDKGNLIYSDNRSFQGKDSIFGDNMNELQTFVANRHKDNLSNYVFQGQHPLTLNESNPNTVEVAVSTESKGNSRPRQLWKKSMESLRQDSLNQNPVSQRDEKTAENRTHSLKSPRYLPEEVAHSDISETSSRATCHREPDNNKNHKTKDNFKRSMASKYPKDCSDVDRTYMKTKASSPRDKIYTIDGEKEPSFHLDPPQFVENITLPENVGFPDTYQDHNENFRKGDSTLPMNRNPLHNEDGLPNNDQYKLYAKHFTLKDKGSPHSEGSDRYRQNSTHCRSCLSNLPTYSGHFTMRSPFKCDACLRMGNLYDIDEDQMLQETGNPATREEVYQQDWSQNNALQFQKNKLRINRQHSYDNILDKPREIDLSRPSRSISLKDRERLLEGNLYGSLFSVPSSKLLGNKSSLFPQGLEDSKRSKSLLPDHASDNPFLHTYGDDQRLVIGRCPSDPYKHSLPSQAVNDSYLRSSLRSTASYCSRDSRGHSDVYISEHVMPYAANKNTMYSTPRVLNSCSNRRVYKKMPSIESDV
# PROTOCOL_SUMMARY: Antagonist activity at rat recombinant NR1-NR2A receptor expressed in Xenopus oocytes at holding potential of -40mV by two-electrode voltage-clamp electrophysiology
# Format: functional, cell-based, Oocyte
# EXPERIMENTAL_CONDITIONS: read-out: IC50
Reported pIC50 values follow for various compounds
Recall that pIC50 is obtained by taking minus log10 of the concentration measured in molar.

Below, 7 compounds whose answers are already recorded.
Return value of pIC50 for input `O=C(O)c1ccc(-n2c(/C=C/c3cccc4ccccc34)nc3ccccc3c2=O)cc1` , no commentary.
4.60

Consider the compound `COc1ccccc1/C=C/c1nc2ccccc2c(=O)n1-c1ccc(C(=O)O)cc1` and give its recorded pIC50.
4.06

Please look at this compound and report its pIC50: `O=C(O)c1ccc(-n2c(/C=C/c3cccc(O)c3)nc3ccccc3c2=O)cc1`
4.28

Give the value of pIC50 reported for the following: `O=c1c2cc(I)ccc2nc(/C=C/c2cccnc2)n1-c1ccccc1`
3.88

Supply reported pIC50 belonging to this compound: `COC(=O)c1cccc(/C=C/c2nc3ccc(OC)cc3c(=O)n2-c2ccc(C(=O)O)cc2)c1`
4.10

Let me know recorded pIC50 for `O=c1c2cc(I)ccc2nc(/C=C/c2cccnc2)n1-c1ccccc1[N+](=O)[O-]` , thanks.
3.69

Output measured pIC50 for this item: `O=C(O)c1cccc(-n2c(/C=C/c3cccc([N+](=O)[O-])c3)nc3ccc(I)cc3c2=O)c1`
5.10

Moving on to another compound below.
For `COc1ccc2nc(/C=C/c3cccc([N+](=O)[O-])c3)n(-c3cccc(C(=O)O)c3)c(=O)c2c1` , write its pIC50.
3.68

---

# EXPERIMENTAL_TARGET: Glutamate receptor 1 (Rattus norvegicus, UniProt P19490)
# Sequence (P19490 whole entry): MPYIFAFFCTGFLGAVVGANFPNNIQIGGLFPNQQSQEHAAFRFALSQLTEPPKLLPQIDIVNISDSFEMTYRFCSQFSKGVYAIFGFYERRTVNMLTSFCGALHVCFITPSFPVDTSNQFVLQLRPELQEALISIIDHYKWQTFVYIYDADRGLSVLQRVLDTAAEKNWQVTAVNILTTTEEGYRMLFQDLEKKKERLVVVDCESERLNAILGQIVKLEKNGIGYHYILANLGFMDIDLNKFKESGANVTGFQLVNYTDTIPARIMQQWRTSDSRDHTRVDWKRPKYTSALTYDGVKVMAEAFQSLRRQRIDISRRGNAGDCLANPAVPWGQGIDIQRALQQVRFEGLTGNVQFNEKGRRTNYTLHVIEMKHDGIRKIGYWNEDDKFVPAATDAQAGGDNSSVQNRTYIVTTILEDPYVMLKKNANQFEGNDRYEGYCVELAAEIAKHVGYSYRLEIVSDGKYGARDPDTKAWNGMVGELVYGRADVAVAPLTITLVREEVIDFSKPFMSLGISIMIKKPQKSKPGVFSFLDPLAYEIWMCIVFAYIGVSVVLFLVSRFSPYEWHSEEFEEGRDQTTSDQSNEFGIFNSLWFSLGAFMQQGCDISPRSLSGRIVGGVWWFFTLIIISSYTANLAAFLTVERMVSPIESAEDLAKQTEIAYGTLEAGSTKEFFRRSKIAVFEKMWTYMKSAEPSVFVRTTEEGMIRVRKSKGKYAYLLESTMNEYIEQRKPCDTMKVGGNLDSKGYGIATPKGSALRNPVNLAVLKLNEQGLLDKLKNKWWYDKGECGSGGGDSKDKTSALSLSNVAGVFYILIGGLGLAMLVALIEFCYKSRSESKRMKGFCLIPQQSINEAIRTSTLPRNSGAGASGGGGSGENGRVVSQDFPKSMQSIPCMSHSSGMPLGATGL
# PROTOCOL_SUMMARY: Antagonist activity at rat recombinant GLuR1 expressed in Xenopus oocytes assessed as inhibition of glutamate-induced current by two-electrode voltage-clamp electrophysiology
# Lookup of reported IC50 keyed by entry

Sample records with IC50:
Given `CN(C)c1ccc(/C=C/c2nc3ccccc3c(=O)n2-c2ccc(C(=O)O)cc2)cc1` , respond with its IC50.
> 300 µM

Please look at this molecule and report its IC50: `COc1ccc(-n2c(/C=C/c3ccc([N+](=O)[O-])cc3)nc3ccccc3c2=O)cc1`
> 300 µM

Give the measured IC50 for `Cc1nc2ccc(I)cc2c(=O)n1-c1ccc(C(=O)O)cc1`
> 300 µM

Given the molecule `O=C(O)c1ccccc1-n1c(/C=C/c2ccc([N+](=O)[O-])cc2)nc2ccccc2c1=O` , write its reported IC50.
> 300 µM

Given `O=C(O)c1ccc(-n2c(/C=C/c3ccc([N+](=O)[O-])cc3)nc3ccccc3c2=O)cc1` , respond with its IC50.
> 300 µM

Further cases:
Entry `O=c1c2cc(I)ccc2nc(/C=C/c2cccnc2)n1-c1ccccc1` needs its IC50 filled in; supply it.
> 300 µM

Provide IC50 value for the following molecule: `O=C(O)c1ccc(-n2c(/C=C/c3cccc([N+](=O)[O-])c3)nc3c(Cl)cc(Cl)cc3c2=O)cc1`
> 300 µM

Specify reported IC50 for the molecule shown: `COC(=O)c1cccc(/C=C/c2nc3ccc(OC)cc3c(=O)n2-c2ccc(C(=O)O)cc2)c1`
41 µM

Provide measured IC50 value, entry: `O=C(O)c1ccc(-n2c(/C=C/c3cccc([N+](=O)[O-])c3)nc3ccc(/C=C/c4ccccc4)cc3c2=O)cc1`
131 µM

---

# EXPERIMENTAL_TARGET: Glutamate NMDA receptor; Grin1/Grin2b (Rattus norvegicus, UniProt P35439+Q00960)
# PROTOCOL_SUMMARY: Antagonist activity at rat recombinant NR1-NR2B receptor expressed in Xenopus oocytes at holding potential of -40mV by two-electrode voltage-clamp electrophysiology
# Type: functional, cell-based, Oocyte
# EXPERIMENTAL_CONDITIONS: read-out: IC50
For each record, check the reported IC50: if it is below 100 µM write t, else write f.

Is the reported IC50 for `Cc1ccc2nc(/C=C/c3cccc([N+](=O)[O-])c3)n(-c3ccc(C(=O)O)cc3)c(=O)c2c1` strictly below 100 µM?
t

Confirm or reject: IC50 of `O=c1c2cc(I)ccc2nc(/C=C/c2cccnc2)n1-c1ccccc1` lies strictly below 100 µM
f

Confirm or reject: IC50 of `Cc1ccc2nc(CCc3ccccc3)n(-c3ccc(C(=O)O)cc3)c(=O)c2c1` lies strictly below 100 µM
t

Strictly below 100 µM in IC50? `O=C(O)c1cccc(-n2c(/C=C/c3cccc([N+](=O)[O-])c3)nc3ccccc3c2=O)c1`
t

Strictly below 100 µM in IC50? `O=C(O)c1cccc(-n2c(/C=C/c3cccnc3)nc3ccc(I)cc3c2=O)c1`
t

Dear colleague, could you confirm whether IC50 of `O=C(O)c1ccc(-n2c(/C=C/c3cccc([N+](=O)[O-])c3)nc3ccc(F)cc3c2=O)cc1` falls below 100 µM? Thanks.
t

More entries:
Criterion: IC50 strictly below 100 µM. Is it met by `COc1ccccc1-n1c(/C=C/c2cccnc2)nc2ccc(I)cc2c1=O` ?
t

Quick check: IC50 of `O=C(O)c1ccc(-n2c(/C=C/c3cccc4ccccc34)nc3ccccc3c2=O)cc1` under 100 µM?
t

Does this molecule meet the criterion IC50 < 100 µM? `COc1cccc(/C=C/c2nc3ccc(OC)cc3c(=O)n2-c2ccc(C(=O)O)cc2)c1`
f

Dear reviewer, please state whether `N#Cc1ccc(/C=C/c2nc3ccccc3c(=O)n2-c2ccc(C(=O)O)cc2)cc1` has IC50 strictly beneath 100 µM.
f

Is IC50 strictly under 100 µM for the entry `COc1cccc(-n2c(/C=C/c3cccc([N+](=O)[O-])c3)nc3ccccc3c2=O)c1` ?
f

A record lists `O=C(O)c1ccc(-n2c(/C=C/c3ccc(N4CCOCC4)cc3)nc3ccccc3c2=O)cc1` . Is its IC50 below 100 µM?
f

Threshold test, IC50 < 100 µM: `O=C(O)c1ccc(-n2c(/C=C/c3cccc([N+](=O)[O-])c3)nc3ccc(/C=C/c4ccccc4)cc3c2=O)cc1`
t

Is 100 µM strictly greater than the molecule's reported IC50? molecule: `COC(=O)c1cccc(/C=C/c2nc3ccc(OC)cc3c(=O)n2-c2ccc(C(=O)O)cc2)c1`
t

Threshold test, IC50 < 100 µM: `O=C(O)c1ccc(-n2c(/C=C/c3cccc([N+](=O)[O-])c3)nc3cc(Cl)ccc3c2=O)cc1`
t

Please determine if `COc1ccc2nc(/C=C/c3ccc([N+](=O)[O-])cc3)n(-c3ccc(C(=O)O)cc3)c(=O)c2c1` is below 100 µM in terms of IC50.
f

Say whether its IC50 is strictly beneath 100 µM. Entry: `O=C(O)c1cccc(-n2c(/C=C/c3ccc([N+](=O)[O-])cc3)nc3ccc(I)cc3c2=O)c1`
f
